biological target: full-length beta-Catenin (Uniprot ID P35222) (Homo sapiens, UniProt P35222); construct: 10 nM full-length beta-Catenin (Uniprot ID P35222); assay: Fluorescence polarization IC50 (beta-catenin / 5FAM-TCF4 10-53 competition); assay type: binding; settings: fluorescence polarization; read-out: beta-Catenin FP IC50
Sequence (P35222 whole entry): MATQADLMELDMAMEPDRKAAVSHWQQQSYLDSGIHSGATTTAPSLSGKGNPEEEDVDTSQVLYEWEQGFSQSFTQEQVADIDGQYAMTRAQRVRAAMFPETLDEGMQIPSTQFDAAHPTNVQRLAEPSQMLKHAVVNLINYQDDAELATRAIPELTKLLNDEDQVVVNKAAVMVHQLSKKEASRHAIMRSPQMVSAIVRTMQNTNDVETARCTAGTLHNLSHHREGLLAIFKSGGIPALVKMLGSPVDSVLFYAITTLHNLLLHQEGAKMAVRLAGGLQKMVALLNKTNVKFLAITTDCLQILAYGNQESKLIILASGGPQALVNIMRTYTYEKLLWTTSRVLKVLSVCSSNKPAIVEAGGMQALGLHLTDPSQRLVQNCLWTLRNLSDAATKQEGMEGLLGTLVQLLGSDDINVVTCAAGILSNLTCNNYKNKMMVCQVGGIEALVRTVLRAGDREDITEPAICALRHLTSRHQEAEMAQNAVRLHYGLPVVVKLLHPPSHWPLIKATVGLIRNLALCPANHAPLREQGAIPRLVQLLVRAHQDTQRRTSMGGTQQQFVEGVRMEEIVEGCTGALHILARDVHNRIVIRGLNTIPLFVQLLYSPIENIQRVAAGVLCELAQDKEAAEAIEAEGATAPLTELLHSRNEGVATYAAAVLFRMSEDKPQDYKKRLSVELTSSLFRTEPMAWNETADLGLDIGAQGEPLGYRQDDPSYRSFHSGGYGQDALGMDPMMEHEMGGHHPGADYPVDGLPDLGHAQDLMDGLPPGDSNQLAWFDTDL
propertyName: IC50 (nM)
Report as a plain number; the unit nM is understood.

Solved cases (4 shown):
compound | propertyName | reportedResult
CC(=O)N1CCC[C@]12CC=CCCCC1(CCCC=CCCCOC(=O)N3CC[C@@](C(=O)N[C@@H](Cc4ccccc4Cl)C(=O)N[C@@H](Cc4csc5ccccc45)C(=O)N[C@@H](C(N)=O)[C@H](C)O)(C3)NC(=O)[C@H](CO)NC(=O)[C@H](Cc3ccccc3)NC(=O)[C@H](C)NC(=O)[C@H](C)NC(=O)[C@H](CC(=O)O)NC(=O)[C@H](CC(=O)O)NC1=O)NC(=O)[C@H](CC1CCCCC1)NC(=O)[C@H](CC(=O)O)NC2=O (some centres unmarked) | IC50 | 16
CC(=O)N1CCC[C@]12CC=CCCCC1(CCCC=CCCCCCC[C@@](C)(C(=O)N[C@@H](Cc3ccsc3)C(=O)N[C@@H](Cc3csc4ccccc34)C(=O)N[C@@H](CCC(N)=O)C(N)=O)NC(=O)[C@H](CC(N)=O)NC(=O)[C@H](Cc3ccccc3)NC(=O)[C@H](C)NC(=O)[C@H](C)NC(=O)[C@H](CC(=O)O)NC(=O)[C@H](CC(=O)O)NC1=O)NC(=O)[C@H](CC(C)(C)C)NC(=O)[C@H](CC(=O)O)N(C)C2=O (some centres unmarked) | IC50 | 722
CC(=O)N1CCC[C@]12CC=CCCCC1(CCCC=CCCCOC(=O)N3CC[C@@](C(=O)N[C@@H](Cc4ccccc4)C(=O)N[C@@H](Cc4csc5ccccc45)C(=O)N[C@@H](CCCN4CCOCC4)C(N)=O)(C3)NC(=O)[C@H](CC(C)C)NC(=O)[C@H](Cc3ccccc3)NC(=O)[C@H](C)NC(=O)[C@H](CCCCNC(C)C)NC(=O)[C@H](CCC(N)=O)NC(=O)[C@H](CC(=O)O)NC1=O)NC(=O)[C@H](CC1CCCCC1)NC(=O)[C@H](CC(N)=O)NC2=O (some centres unmarked) | IC50 | 401
CC(=O)N1CCC[C@]12CC=CCCCC1(CCCC=CCCCOC(=O)N3CC[C@@](C(=O)N[C@@H](Cc4ccsc4)C(=O)N[C@@H](Cc4ccc(Cl)cc4)C(=O)N[C@@H](C)C(N)=O)(C3)NC(=O)[C@H](C(C)C)NC(=O)[C@H](Cc3ccccc3)NC(=O)[C@H](C)NC(=O)[C@H](CCC(N)=O)NC(=O)[C@H](Cc3cccc(C(=O)O)c3)NC(=O)[C@H](CC(=O)O)NC1=O)NC(=O)[C@H](CC(C)(C)C)NC(=O)[C@H](CC(=O)O)NC2=O (some centres unmarked) | IC50 | 11

Now for the compound whose IC50 we want.
Q: Form: Entry = CC(=O)N1CCC[C@]12CC=CCCCC1(CCCC=CCCCOC(=O)N3CC[C@@](C(=O)N[C@@H](Cc4ccccc4)C(=O)N[C@@H](Cc4csc5ccccc45)C(=O)N[C@@H](CCC(N)=O)C(N)=O)(C3)NC(=O)[C@H](CC(C)C)NC(=O)[C@H](Cc3ccccc3)NC(=O)[C@H](C)NC(=O)[C@H](CCCCNC(C)C)NC(=O)[C@H](CCO)NC(=O)[C@H](CC(=O)O)NC1=O)NC(=O)[C@H](CC1CCCCC1)NC(=O)[C@H](CC(N)=O)NC2=O (some centres unmarked) [I-2344] | System = full-length beta-Catenin (Uniprot ID P35222) (Homo sapiens, UniProt P35222) | IC50 = ____
A: 586
